experiment: gradient 5% acetonitrile 3 min, to 50% in 2 min, to 85% in 15 min, held 3 min, 100 µL/min; conditions: column: Zorbax Extend-C18 2.1 x 50 mm; eluents: water / acetonitrile, 0.1% formic acid
endpoint_label: RP-LC retention time
Output should be the measured figure followed by the unit it is expressed in.

What the record says about COc1ccc(OC)c(NC(=O)N2CCC3(CC2)Nc2ccccc2-n2cccc23)c1 : RP-LC retention time is 1040 s

What the record says about CNC(=O)[C@H]1O[C@@H](n2cnc3c(NCc4cccc(I)c4)nc(Cl)nc32)C(O)[C@H]1O (stereo partly drawn) : RP-LC retention time is 768 s

What the record says about N#Cc1ccc(N2CCN(C(=O)COc3ccc4[nH]cc(CCN)c4c3)CC2)cc1 : RP-LC retention time is 684 s
